- System: HT29 colon
- measurementDescription: NCI-60 one-dose screen, 48 h (100 = growth as untreated, 0 = no growth, -100 = all killed)
- testContext: 10 µM unless noted
This is part of a sample that, as a whole, favours compounds with a hit. Of some 83,000 tested, about 20% had one in any assay. Calls of active or inactive are those of the source. The calls were made as follows: active = growth percent below 10; inactive = the rest.
propertyLabel: growth

# annotated cases, reported growth shown
1. Cc1ccc(NC(=O)c2sc3nc(C)c(C(=O)c4ccccc4)cc3c2N)cc1    102% (inactive)
2. O=C(CC1(O)C(=O)Nc2ccc(Br)cc21)c1ccc(Cl)cc1 (stereo not given)    97.8% (inactive)
3. COc1ccc(-c2cc(-c3cccc(Cl)c3)c(C#N)c(=O)[nH]2)c(OC)c1    118% (inactive)
4. CN1CCN(Cc2ccc(NC(=O)c3cccc(C#Cc4c(N)ncc5ccc(F)cc45)c3)cc2C(F)(F)F)CC1    -56.1% (active)
5. Nc1nc(Nc2ccc(F)cc2)nn1C(=O)c1cc(Cl)ccc1Cl    70.8% (inactive)
6. CCCCCCCCCCCCC[C@H](O)C[C@H](O)[C@H](C)N    103% [1.25 µM] (inactive)

Retrieve growth measured for COc1ccc2nc3cc(Cl)ccc3c(NCCCNCCC(C)O)c2c1 (stereo not given) and print it.
4% (active)

Determine its reported growth: `Cn1cc(-c2csc(-c3cn(CCOC(N)=O)c4ccccc34)n2)c2cccnc21`
47.6% (inactive)
